test system: HL-60 cell line; test: MTT cell viability assay, HL-60; assay type: cell-based; conditions: Homo sapiens, 72 hrs
Field: class. Source value: IC50. Ranges: low: < 0.4 µM; intermediate: ≥ 0.4 µM and < 1 µM; high: ≥ 1 µM

C=CCc1cccc(/C=N/NC(=O)CN2CCN(Cc3ccccc3)CC2)c1O	high

Class for `O=C(CN1CCN(Cc2nc(-c3ccc(COc4ccc(Cl)cc4)cc3)no2)CC1)N/N=C/c1ccc(OCc2ccccc2)cc1O` ?
high

Class for `CC(C)(C)c1ccc(COc2ccc(/C=N/NC(=O)CN3CCN(Cc4nc(-c5ccc(COc6ccc(Cl)cc6)cc5)no4)CC3)c(O)c2)cc1` ?
intermediate

Class for `O=C(CN1CCN(Cc2nc(-c3ccc(COc4ccc(F)c(F)c4)cc3)no2)CC1)N/N=C/c1ccc(OCc2ccc(Cl)cc2)cc1O` ?
low

###

System: HL-60 cell line
Experiment: MTT cell viability assay, HL-60
Type: cell-based
Details: Homo sapiens, 72 hrs
Procedure: The cell viability effects of the tested compounds were determined by MTT assay. Cells (1 × 10^4 cells/100 μl/well) were seeded into 96-well culture plates. After overnight incubation, cells were treated with various concentrations of compounds for 72 hrs. Subsequently, 10 μl MTT solution (2.5 mg/ml in PBS) was added to each well, than the cells were incubated for an additional 3–4 hrs at 37°C. […] The optical density of each well was measured at 570 nm with a Biotek Synergy TM HT Reader.
EXPERIMENTAL ENDPOINT: IC50 (µM)
Output spec: scalar in µM, unitless text.

Please review the entries below; each comes with its answer.
O=C(CN1CCN(Cc2nc(-c3ccc(COc4ccc(F)cc4)cc3)no2)CC1)N/N=C/c1ccc(OCc2ccc(Cl)cc2Cl)cc1O [B2]	1.02
C=CCc1cccc(/C=N/NC(=O)CN2CCN(Cc3nc(-c4ccc(COc5cccc(Cl)c5)cc4)no3)CC2)c1O [A3]	0.4
O=C(CN1CCN(Cc2nc(-c3ccc(COc4ccc(F)cc4)cc3)no2)CC1)N/N=C/c1ccc(OCc2cccc(C(F)(F)F)c2)cc1O [B3]	0.98
O=C(CN1CCN(Cc2nc(-c3ccc(COc4ccccc4C(F)(F)F)cc3)no2)CC1)N/N=C/c1ccc(OCc2cccc(F)c2)cc1O [B11]	1.93
O=C(CN1CCN(Cc2nc(-c3ccc(COc4ccc(F)c(F)c4)cc3)no2)CC1)N/N=C/c1ccc(OCc2ccc(Cl)cc2Cl)cc1O [B9]	0.41
CC(C)(C)c1ccc(COc2ccc(/C=N/NC(=O)CN3CCN(Cc4nc(-c5ccc(COc6ccc(F)cc6)cc5)no4)CC3)c(O)c2)cc1 [B6]	0.6
O=C(CN1CCN(Cc2nc(-c3ccc(COc4ccc(Cl)cc4)cc3)no2)CC1)N/N=C/c1ccc(OCc2csc(Cc3ccc4c(c3)OCO4)n2)cc1O [C2]	0.08
O=C(CN1CCN(Cc2nc(-c3ccc(COc4ccccc4C(F)(F)F)cc3)no2)CC1)N/N=C/c1ccc(OCc2csc(Cc3ccc4c(c3)OCO4)n2)cc1O [C1]	1.08

Now let's try a different one.
Please tell me: IC50 of C=CCc1cccc(/C=N/NC(=O)CN2CCN(Cc3nc(-c4ccc(COc5ccc(F)cc5)cc4)no3)CC2)c1O [A2] , system HL-60 cell line?
0.39

// provenance: paper PMC4549042
